This section presents molecules with their documented melting point values.
readout_label: melting point

chemical_structure	readout_label	observed_measurement
Cc1nnc(N2CCN(C=O)CC2)c2cc3ccccn3c12	melting point	325 °C
Cc1c(C)c2c(c(C)c1OCc1ccccc1)CC[C@@](C)(CCO)O2	melting point	55 to 56 °C
CCOC(=O)Cc1cc(C)c(C(=O)c2ccccc2)n1C	melting point	78 to 80 °C
CC(=O)NCc1ccc(CN2CCN(c3ccc(Cl)cc3)CC2)cc1	melting point	180 to 182 °C
[N-]=[N+]=NCc1ccc(Sc2ccc(Cl)cc2)c(Cl)c1	melting point	39 to 41 °C
CCOC(=O)COc1ccc2c(c1)CCC2=O	melting point	59 to 61 °C
COc1cc(/C=C/c2ccc(C(C)C)cc2)cc(OC)c1OC	melting point	74 to 75 °C
CCCCc1cc(C#N)sc1-c1ccc2c(c1)C(C)(C)OC(=O)N2	melting point	167 to 168 °C
CCCCCC(=O)Nc1ncc(OC)cn1	melting point	102 °C
COc1ccc(OC)c(C=O)c1C	melting point	61 to 61.5 °C
COC(=O)c1ccc2sc3ccccc3c2c1	melting point	127 to 129 °C
CCCCCCOc1ccc(C(=O)NCCC(C)(C)C)cn1	melting point	75 to 76.5 °C
